The following binders are shown together with reported pKd values.
measured-target: T1, cynoNectin4-mFc (cyno, UniProt A0A2K5WES1 32-349)
T1 construct: Immobilized on the SPR chip; also called cyanoNectin4; not shown: mFc (mouse Fc)
T1 sequence: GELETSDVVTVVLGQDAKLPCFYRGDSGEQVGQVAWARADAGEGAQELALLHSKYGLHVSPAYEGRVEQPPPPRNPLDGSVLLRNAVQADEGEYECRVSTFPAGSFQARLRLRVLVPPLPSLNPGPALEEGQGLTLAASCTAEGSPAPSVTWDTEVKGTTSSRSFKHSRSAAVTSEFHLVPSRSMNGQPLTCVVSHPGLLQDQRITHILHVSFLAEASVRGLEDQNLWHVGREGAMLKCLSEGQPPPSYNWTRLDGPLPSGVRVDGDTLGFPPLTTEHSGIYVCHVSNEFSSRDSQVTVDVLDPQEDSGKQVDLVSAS
assay-name: SPR, cynoNectin4-mFc immobilized, pH 6.0
A value of pKd is the negative decimal logarithm of a concentration given in moles per litre.

- binder: "BAP-143-00-05 (antibody, V domains shown, Used as a conjugate with a linker payload (CAB ADC)) VH: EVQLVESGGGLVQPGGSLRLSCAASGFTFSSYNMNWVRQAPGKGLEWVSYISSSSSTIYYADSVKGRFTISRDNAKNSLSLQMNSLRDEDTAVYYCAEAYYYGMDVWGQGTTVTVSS VL: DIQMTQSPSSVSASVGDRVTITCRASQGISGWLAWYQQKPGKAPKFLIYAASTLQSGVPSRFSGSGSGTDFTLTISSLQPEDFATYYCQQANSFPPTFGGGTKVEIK"
  pKd: 8.15
- binder: "BAP-143-wildtype (antibody, V domains shown, 150 kDa used in SPR; also called BAP143-00-00; benchmark (BM)) VH: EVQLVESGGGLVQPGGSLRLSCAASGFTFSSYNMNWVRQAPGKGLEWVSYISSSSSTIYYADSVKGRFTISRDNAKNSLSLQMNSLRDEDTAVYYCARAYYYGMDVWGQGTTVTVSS VL: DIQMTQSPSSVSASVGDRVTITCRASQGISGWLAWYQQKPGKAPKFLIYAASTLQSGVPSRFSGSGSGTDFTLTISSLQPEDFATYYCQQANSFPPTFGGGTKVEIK"
  pKd: 8.97
- binder: "BAP-143-00-01 (antibody, V domains shown, Used as a conjugate with a linker payload (CAB ADC)) VH: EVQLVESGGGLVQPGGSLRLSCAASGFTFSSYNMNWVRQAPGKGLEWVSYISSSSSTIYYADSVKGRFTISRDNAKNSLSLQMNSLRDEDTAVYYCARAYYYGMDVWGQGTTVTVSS VL: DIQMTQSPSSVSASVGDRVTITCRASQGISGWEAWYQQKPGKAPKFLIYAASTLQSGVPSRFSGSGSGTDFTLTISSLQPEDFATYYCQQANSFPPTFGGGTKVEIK"
  pKd: 8.52

Here's the next entry for you.
Look up and state reported pKd for BAP-143-00-06 (antibody, V domains shown, Used as a conjugate with a linker payload (CAB ADC)) VH: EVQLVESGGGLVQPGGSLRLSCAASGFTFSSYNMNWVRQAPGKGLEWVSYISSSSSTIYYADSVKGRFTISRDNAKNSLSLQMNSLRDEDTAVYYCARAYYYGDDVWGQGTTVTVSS VL: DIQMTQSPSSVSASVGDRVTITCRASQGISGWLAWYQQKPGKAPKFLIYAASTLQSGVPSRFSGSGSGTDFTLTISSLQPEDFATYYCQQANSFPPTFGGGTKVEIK
9.25
